measurement description: qHTS of pediatric cancer cell lines to identify multiple opportunities for drug repurposing: Primary screen for NB1643 cells (AID 1347099); note: nearly all actives have a fitted effect of over 50% in size
condition summary: NB1643 neuroblastoma viability, CellTiter-Glo luminescence, 48 h; series mostly up to 46 µM
Records with an inconclusive call do not appear. The source made the active and inactive calls. Calls come from the whole dose curve; as a rule, active = well fitted cell-killing curve with a large enough effect; inconclusive = small, poorly fitted or top-dose-only effect; inactive = no such curve, though single readings can be large or run the other way.
Give your call using only these classes: active, inactive

{"columns": ["molecule", "group label"],
 "data": [
  ["CC(C)[N+](C)(CCOC(=O)C1c2ccccc2Oc2ccccc21)C(C)C", "inactive"],
  ["COc1cc(C(=O)OCCCN2CCCN(CCCOC(=O)c3cc(OC)c(OC)c(OC)c3)CC2)cc(OC)c1OC", "inactive"],
  ["CC1=NS(=O)(=O)c2cc(Cl)ccc2N1", "inactive"],
  ["CCCN(CCC)CCc1cccc2c1CC(=O)N2", "inactive"],
  ["CNC1(C)C2CCC(C2)C1(C)C (configuration not stated)", "inactive"]
]}

query: Any idea what this test logged for CC(C)(Oc1ccc(CCNC(=O)c2ccc(Cl)cc2)cc1)C(=O)O ?
result: inactive

query: Any idea what this test logged for c1cc(CN2CCCCC2)cc(OCCCNc2nc3ccccc3s2)c1 ?
result: inactive

query: Any idea what this test logged for CCCCCCCC/C=C\CCCCCCCC(=O)NCc1ccc(O)c(OC)c1 ?
result: inactive

query: Any idea what this test logged for CCOC(=O)c1cnc2c(cnn2CC)c1NN=C(C)C ?
result: inactive

query: Any idea what this test logged for C[C@]12CC[C@@H]3c4ccc(O)cc4C[C@@H](CCCCCCCCCS(=O)CCCC(F)(F)C(F)(F)F)[C@H]3[C@@H]1CC[C@@H]2O (some centres not stated) ?
result: inactive

query: Any idea what this test logged for CN(C)C/C=C(/c1ccc(Br)cc1)c1cccnc1 ?
result: inactive

query: Any idea what this test logged for CCCCNC(=O)NS(=O)(=O)c1ccc(C)cc1 ?
result: inactive

query: Any idea what this test logged for OCCN1CCN(CCCN2c3ccccc3C=Cc3ccccc32)CC1 ?
result: inactive

query: Any idea what this test logged for NC(N)=N/N=C/c1c(Cl)cccc1Cl ?
result: inactive

query: Any idea what this test logged for CC(C)(C)NCC(O)c1cc(O)cc(O)c1 (configuration not stated) ?
result: inactive

query: Any idea what this test logged for C[C@@H](O)[C@H]1C(=O)N2C(C(=O)O)=C(SCCN=CN)C[C@H]12 ?
result: inactive

query: Any idea what this test logged for CC(C)COCC(CN(Cc1ccccc1)c1ccccc1)N1CCCC1 (configuration not stated) ?
result: active

query: Any idea what this test logged for C[C@]12C=CC(=O)C=C1CC[C@H]1[C@@H]3C[C@@H](O)[C@](O)(C(=O)CO)[C@@]3(C)C[C@H](O)[C@@]12F ?
result: inactive

query: Any idea what this test logged for CCN(CC)CC(=O)Nc1c(C)cccc1C ?
result: inactive

query: Any idea what this test logged for CCn1ccnc1CC1COc2ccccc2O1 (configuration not stated) ?
result: inactive

query: Any idea what this test logged for CC(C(=O)O)c1ccc(CC2CCCC2=O)cc1 (configuration not stated) ?
result: inactive

query: Any idea what this test logged for C[C@H](CS)C(=O)N1CCC[C@H]1C(=O)O ?
result: inactive

query: Any idea what this test logged for CCN(CC)CCNC(=O)c1cc(S(C)(=O)=O)ccc1OC ?
result: inactive

query: Any idea what this test logged for CCN(CC)CCNC(=O)c1ccc(NC(C)=O)cc1 ?
result: inactive

query: Any idea what this test logged for NC(=O)N1c2ccccc2C=Cc2ccccc21 ?
result: inactive

query: Any idea what this test logged for O=C(O)CCCCCCCC(=O)O ?
result: inactive

query: Any idea what this test logged for COCCCC/C(=N\OCCN)c1ccc(C(F)(F)F)cc1 ?
result: inactive

query: Any idea what this test logged for COc1ccc([C@@H]2Sc3ccccc3N(CCN(C)C)C(=O)[C@@H]2OC(C)=O)cc1 ?
result: inactive

query: Any idea what this test logged for CC(C)NNC(=O)c1ccncc1 ?
result: inactive

query: Any idea what this test logged for Cc1ccc(S(=O)(=O)NC(=O)NN2CCCCCC2)cc1 ?
result: inactive

query: Any idea what this test logged for Cc1ccc(=O)n(-c2ccccc2)c1 ?
result: inactive

query: Any idea what this test logged for C(=C\c1ccccc1)/CN1CCN(C(c2ccccc2)c2ccccc2)CC1 ?
result: inactive

query: Any idea what this test logged for CO[C@@]1(NC(=O)CSCC#N)C(=O)N2C(C(=O)O)=C(CSc3nnnn3C)CS[C@@H]21 ?
result: inactive
